- Procedure Text: AUC (0 to infinity) in BALB/c mouse at 5 mg/kg, iv
- Format: ADME, organism-based
- Design: time infinity, dose 5 mg/kg, route intravenous
- Reported Conditions: plasma
Recorded Metric: AUC(0-inf) (ng·h/mL)
All answers are understood in ng·h/mL, so give the number only.

Output AUC(0-inf) of C[C@@H](Oc1cc(-c2ccc3c(c2)NC(=O)C32CCN(C)CC2)cnc1N)c1c(Cl)ccc(F)c1Cl
1230

###

- Procedure Text: Cmax in BALB/c mouse at 20 mg/kg, po
- Assay type: ADME, organism-based
- Design: dose 20 mg/kg, route oral
- Reported Conditions: in vivo
Recorded Metric: Cmax (nM)
Report only the number, with the unit nM understood.

Respond only with Cmax recorded for C[C@@H](Oc1cc(-c2ccc3c(c2)NC(=O)C32CCN(C)CC2)cnc1N)c1c(Cl)ccc(F)c1Cl
1450
